Listing: IC50 of selected molecules
# measured-target: ErbB2 insYVMA (HER2-YVMA, SEQ ID NO: 2) (Homo sapiens, UniProt P04626, INS775YVMA/P1170A)
# Sequence (P04626 with tags, fused parts or gaps INS775YVMA/P1170A limits assumed): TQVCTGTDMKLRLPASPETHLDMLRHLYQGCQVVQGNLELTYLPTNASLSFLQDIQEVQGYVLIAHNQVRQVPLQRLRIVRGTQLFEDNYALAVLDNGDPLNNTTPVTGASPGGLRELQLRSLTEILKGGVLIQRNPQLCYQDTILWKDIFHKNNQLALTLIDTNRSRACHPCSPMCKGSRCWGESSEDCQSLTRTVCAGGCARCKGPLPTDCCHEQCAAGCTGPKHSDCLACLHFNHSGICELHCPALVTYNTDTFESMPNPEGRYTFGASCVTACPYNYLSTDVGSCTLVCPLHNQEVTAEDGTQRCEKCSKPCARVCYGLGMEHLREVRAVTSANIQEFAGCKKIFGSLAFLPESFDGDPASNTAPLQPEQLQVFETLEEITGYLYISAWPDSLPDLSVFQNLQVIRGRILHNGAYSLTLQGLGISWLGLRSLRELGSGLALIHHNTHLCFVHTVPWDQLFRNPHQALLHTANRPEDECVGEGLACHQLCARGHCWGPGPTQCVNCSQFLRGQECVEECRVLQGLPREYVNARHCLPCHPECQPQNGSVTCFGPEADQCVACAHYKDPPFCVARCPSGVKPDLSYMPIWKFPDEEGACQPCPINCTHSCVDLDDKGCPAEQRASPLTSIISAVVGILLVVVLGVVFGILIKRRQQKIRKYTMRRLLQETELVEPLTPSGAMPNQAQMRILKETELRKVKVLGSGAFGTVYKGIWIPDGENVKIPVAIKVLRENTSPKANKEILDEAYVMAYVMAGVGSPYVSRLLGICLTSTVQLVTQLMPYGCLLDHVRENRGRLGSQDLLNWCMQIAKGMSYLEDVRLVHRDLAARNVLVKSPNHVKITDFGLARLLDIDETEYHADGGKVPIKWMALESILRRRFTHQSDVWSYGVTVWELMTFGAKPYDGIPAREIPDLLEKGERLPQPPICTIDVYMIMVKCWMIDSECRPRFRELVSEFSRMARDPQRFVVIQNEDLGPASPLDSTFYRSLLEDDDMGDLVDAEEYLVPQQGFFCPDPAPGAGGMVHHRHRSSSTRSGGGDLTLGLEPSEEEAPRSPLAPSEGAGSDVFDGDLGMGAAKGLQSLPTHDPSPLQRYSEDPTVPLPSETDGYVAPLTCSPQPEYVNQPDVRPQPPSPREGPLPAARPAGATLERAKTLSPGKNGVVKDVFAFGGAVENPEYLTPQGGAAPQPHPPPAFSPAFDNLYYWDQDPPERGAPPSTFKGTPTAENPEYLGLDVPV
# assay-comment: biochemical
# condition-info: ErbB2 insYVMA enzyme assay; read-out: Assay 1 IC50
Record the value in nM, omitting the unit from your answer.

Observe how each entry below is paired with its result.
INSERT INTO assay_data (molecule, value) VALUES
  ('Cc1cc(Nc2ncnc3cnc(N4CCC(C)S4(=O)=O)nc23)ccc1Oc1ccc2c(c1)ncn2C (centres unmarked)', 34.3),
  ('CSc1ncc2ncnc(Nc3ccc(Oc4ccc5csnc5c4)c(C)c3)c2n1 [Example 11, 2,2,2-trifluoroacetate]', 54.4),
  ('Cc1cc(Nc2ncnc3cnc(N4CC[C@@H](C)C4=O)nc23)ccc1Oc1ccc2c(c1)ncn2C', 41.1),
  ('Cc1cc(Nc2ncnc3cnc(N4CCO[C@H]5C[C@H]54)nc23)ccc1Oc1ccc2c(c1)ncn2C (single isomer, unassigned) [Example 60b]', 16.1),
  ('Cc1cc(Nc2ncnc3cnc(N4CCCO4)nc23)ccc1Oc1ccn2ncnc2c1', 55.5);

// IC50 lookup, molecule = Cc1cc(Nc2ncnc3cnc(N4CC5CCC(C4)O5)nc23)ccc1Oc1ccc2c(c1)ncn2C , result: 49.1

Sure, the documented IC50 for CSc1ncc2ncnc(Nc3ccc(Oc4ccc5conc5c4)c(C)c3)c2n1 is 49

The reported IC50 of the molecule Cc1cc(Nc2ncnc3cnc(N(C)C)nc23)ccc1Oc1ccc2c(c1)ncn2C [Example 3, 2,2,2-trifluoroacetate] was 12.5

Input CCON1CCN(c2ncc3ncnc(Nc4ccc(Oc5ccc6c(c5)ncn6C)c(C)c4)c3n2)CC1 . Output IC50: 76.5

Form: molecule = Cc1cc(Nc2ncnc3cnc(-c4ccncc4)nc23)ccc1Oc1ccc2c(c1)ncn2C [Example 47, bis(2,2,2-trifluoroacetate)] ; IC50 = 59.6

Lab note: CN(CCC(C)(C)O)c1ncc2ncnc(Nc3ccc(Oc4ccn5ncnc5c4)c(Cl)c3)c2n1 gave IC50 of 15.4

get_value(item= CN(c1ncc2ncnc(Nc3ccc(Oc4ccn5ncnc5c4)c(Cl)c3)c2n1)[C@@H]1CCCOC1 , readout=IC50) returns 3.6

// recorded IC50 for Cc1cc(Nc2ncnc3cnc(N4C[C@]5(CCOC5)CC4=O)nc23)ccc1Oc1ccc2c(c1)ncn2C : 94.3

Input Cc1cc(Nc2ncnc3cnc(N(C)CC(C)(C)O)nc23)ccc1Oc1cc(F)c2c(c1)ncn2C . Output IC50: 20.3

molecule Cc1c(Oc2ccc3c(c2)ncn3C)ccc(Nc2ncnc3cnc(N4CC[C@H]4C(C)(C)O)nc23)c1F , IC50 observed: 64.6

IC50 recorded for this molecule, Cc1cc(Nc2ncnc3cnc(N4C[C@@H]5C[C@H]4CO5)nc23)ccc1Oc1ccc2c(c1)ncn2C , is 30.7

Reported IC50 ( Cc1cc(Nc2ncnc3cnc(N4CC(F)(F)C4)nc23)ccc1Oc1ccc2c(c1)ncn2C ) = 183

IC50 measured on CC(C)(O)[C@@H]1CCN(c2ncc3ncnc(Nc4ccc(Oc5ccn6ncnc6c5)c(Cl)c4)c3n2)C1 = 15.2

Recorded IC50 (molecule Cc1cc(Nc2ncnc3cnc(N)nc23)ccc1Oc1ccc2c(c1)ncn2C [Example 206, bis(2,2,2-trifluoroacetate)] ): 12.6

Record Cc1cc(Nc2ncnc3cnc(OCC4(F)CNC4)nc23)ccc1Oc1ccc2c(c1)ncn2C . Reported IC50: 76.2

----------
# measured-target: MDR1 (P-gp) (Homo sapiens (Human), UniProt P08183)
# Sequence (P08183 whole entry): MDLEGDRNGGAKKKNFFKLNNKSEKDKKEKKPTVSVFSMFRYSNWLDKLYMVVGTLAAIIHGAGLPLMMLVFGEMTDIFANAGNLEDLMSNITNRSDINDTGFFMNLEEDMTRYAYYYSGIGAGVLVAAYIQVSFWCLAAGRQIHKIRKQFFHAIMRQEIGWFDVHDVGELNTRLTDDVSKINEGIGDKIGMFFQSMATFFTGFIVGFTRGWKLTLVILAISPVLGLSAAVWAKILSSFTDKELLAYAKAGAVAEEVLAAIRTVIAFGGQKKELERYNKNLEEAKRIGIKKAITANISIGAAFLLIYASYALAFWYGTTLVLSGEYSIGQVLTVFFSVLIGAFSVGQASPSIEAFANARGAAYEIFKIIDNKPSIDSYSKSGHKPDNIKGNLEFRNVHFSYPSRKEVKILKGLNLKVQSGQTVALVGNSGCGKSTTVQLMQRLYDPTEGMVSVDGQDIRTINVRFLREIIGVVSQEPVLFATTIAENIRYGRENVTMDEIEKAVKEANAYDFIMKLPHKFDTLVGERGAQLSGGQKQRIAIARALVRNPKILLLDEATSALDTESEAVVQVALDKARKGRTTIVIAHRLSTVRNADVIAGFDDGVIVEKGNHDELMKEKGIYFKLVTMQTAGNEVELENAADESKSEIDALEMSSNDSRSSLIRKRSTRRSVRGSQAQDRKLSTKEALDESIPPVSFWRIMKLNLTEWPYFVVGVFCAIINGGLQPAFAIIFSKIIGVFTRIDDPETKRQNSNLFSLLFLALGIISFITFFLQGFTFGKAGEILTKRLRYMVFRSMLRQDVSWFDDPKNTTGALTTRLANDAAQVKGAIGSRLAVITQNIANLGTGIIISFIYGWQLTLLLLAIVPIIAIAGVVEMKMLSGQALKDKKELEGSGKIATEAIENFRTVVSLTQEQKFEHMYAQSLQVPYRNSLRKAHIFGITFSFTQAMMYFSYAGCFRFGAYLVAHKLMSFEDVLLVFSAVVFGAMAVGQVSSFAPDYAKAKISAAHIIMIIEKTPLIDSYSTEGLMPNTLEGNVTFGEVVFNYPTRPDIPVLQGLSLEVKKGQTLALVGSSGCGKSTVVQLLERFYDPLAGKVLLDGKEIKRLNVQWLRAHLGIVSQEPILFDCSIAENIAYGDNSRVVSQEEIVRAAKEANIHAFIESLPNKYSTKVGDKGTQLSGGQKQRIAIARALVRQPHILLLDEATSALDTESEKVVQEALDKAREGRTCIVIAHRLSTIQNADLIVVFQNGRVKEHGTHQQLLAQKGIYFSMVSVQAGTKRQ
# assay-comment: MDR1 transfected LLC-PK1 permeability/efflux, Assay 6
# condition-info: pig, LLC-PK1, Assay 6 Pe Ratio, efflux ratio Papp(B-A)/Papp(A-B), MDR1 transfected LLC-PK1
Consider the following compounds and their measured efflux ratio at 2 h, 1 μM readings.
No unit in the answer, only the number.

Past entries and their recorded results:
INSERT INTO assay_data (compound, value) VALUES
  ('Cc1cc(Nc2ncnc3cnc(N(C)C4CC4)nc23)ccc1Oc1ccc2c(c1)ncn2C', 1.3),
  ('Cc1cc(Nc2ncnc3cnc(N4CCC4)nc23)ccc1Oc1ccc2c(c1)ncn2C', 1.2),
  ('Cc1cc(Nc2ncnc3cnc(N4CC[C@H](C(F)F)C4)nc23)ccc1Oc1ccc2c(c1)ncn2C', 0.7),
  ('Cc1cc(Nc2ncnc3cnc(N4CC[C@@H](C)C4=O)nc23)ccc1Oc1ccc2c(c1)ncn2C', 4.4),
  ('CSc1ncc2ncnc(Nc3ccc(Oc4ccc5csnc5c4)c(C)c3)c2n1 [Example 11, 2,2,2-trifluoroacetate]', 0.7),
  ('Cc1cc(Nc2ncnc3cnc(N4C[C@@H]5CC[C@H]4CO5)nc23)ccc1Oc1ccc2c(c1)ncn2C', 1.7);

The measured efflux ratio at 2 h, 1 μM associated with Cc1cc(Nc2ncnc3cnc(N4C[C@@H]5C[C@H]4CO5)nc23)ccc1Oc1ccc2c(c1)ncn2C reads 2.4

Query Cc1cc(Nc2ncnc3cnc(N)nc23)ccc1Oc1ccc2c(c1)ncn2C [Example 206, bis(2,2,2-trifluoroacetate)] yields efflux ratio at 2 h, 1 μM of 3.3

Consider CNc1ncc2ncnc(Nc3ccc(Oc4cc(F)c5c(c4)ncn5C)c(C)c3)c2n1 . Its measured efflux ratio at 2 h, 1 μM is 1.9

The compound listed as Cc1cc(Nc2ncnc3cnc(N4C[C@H]5C[C@@H]4CO5)nc23)ccc1Oc1ccc2c(c1)ncn2C shows efflux ratio at 2 h, 1 μM equal to 1.7

Reported efflux ratio at 2 h, 1 μM ( Cc1cc(Nc2ncnc3cnc(N4CCOC(C)(C)C4)nc23)ccc1Oc1ccc2c(c1)ncn2C ) = 1.6

Summary for this compound, Cc1cc(Nc2ncnc3cnc(N4CCOCC4)nc23)ccc1Oc1ccc2c(c1)ncn2C [Example 9, 2,2,2-trifluoroacetate] : efflux ratio at 2 h, 1 μM is 0.8

efflux ratio at 2 h, 1 μM recorded for this compound, Cc1ncc(-c2ncc3ncnc(Nc4ccc(Oc5ccc6c(c5)ncn6C)c(C)c4)c3n2)o1 , is 1.9

----------
# pIC50 listing for each entry below
# measured-target: ErbB2 with Exon 20 YVMA insertion (HER2-YVMA) (Homo sapiens (Human), UniProt P04626, INS775YVMA)
# Sequence (P04626 other isoform, or with tags, fused parts or gaps ins YVMA behind 775): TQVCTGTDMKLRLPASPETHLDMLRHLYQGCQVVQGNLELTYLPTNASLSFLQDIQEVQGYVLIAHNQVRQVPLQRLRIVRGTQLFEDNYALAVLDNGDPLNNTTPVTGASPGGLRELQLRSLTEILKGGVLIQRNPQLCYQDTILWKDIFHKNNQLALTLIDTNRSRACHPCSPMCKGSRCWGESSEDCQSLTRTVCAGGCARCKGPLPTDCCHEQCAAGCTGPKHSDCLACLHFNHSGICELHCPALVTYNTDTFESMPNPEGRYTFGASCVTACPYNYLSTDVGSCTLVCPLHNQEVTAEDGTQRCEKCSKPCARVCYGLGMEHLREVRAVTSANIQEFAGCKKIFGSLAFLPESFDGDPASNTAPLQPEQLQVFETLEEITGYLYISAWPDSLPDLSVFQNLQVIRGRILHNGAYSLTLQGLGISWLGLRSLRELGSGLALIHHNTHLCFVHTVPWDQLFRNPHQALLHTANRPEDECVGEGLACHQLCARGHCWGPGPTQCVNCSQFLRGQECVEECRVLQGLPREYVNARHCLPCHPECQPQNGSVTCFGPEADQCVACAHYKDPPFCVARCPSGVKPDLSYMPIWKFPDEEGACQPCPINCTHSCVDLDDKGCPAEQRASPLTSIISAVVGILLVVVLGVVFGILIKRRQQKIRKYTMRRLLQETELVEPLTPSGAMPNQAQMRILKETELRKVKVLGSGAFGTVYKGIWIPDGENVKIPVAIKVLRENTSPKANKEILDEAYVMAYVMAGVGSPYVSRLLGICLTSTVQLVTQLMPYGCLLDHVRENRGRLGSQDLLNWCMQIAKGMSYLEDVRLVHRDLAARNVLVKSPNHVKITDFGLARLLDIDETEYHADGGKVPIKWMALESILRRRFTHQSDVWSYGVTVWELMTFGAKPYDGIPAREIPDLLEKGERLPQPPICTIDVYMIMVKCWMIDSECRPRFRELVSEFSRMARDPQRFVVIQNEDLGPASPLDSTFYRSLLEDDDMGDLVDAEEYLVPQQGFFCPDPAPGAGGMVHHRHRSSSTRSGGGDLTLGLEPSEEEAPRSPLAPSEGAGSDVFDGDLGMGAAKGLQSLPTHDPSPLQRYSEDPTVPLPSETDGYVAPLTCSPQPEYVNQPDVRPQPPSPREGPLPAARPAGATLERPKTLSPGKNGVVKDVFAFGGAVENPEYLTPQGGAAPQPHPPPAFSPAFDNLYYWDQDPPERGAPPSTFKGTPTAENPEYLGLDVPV
# assay-comment: Cellular phosphorylation assay, constitutive ErbB2 phosphorylation (Y1196) in engineered NIH 3T3 cells, Assay 4
In simple prose, pIC50 is minus the logarithm base ten of a concentration in moles per litre.

INSERT INTO assay_data (molecule, endpoint, value) VALUES
  ('Cc1cc(Nc2ncnc3cnc(N4C[C@]5(CCOC5)CC4=O)nc23)ccc1Oc1ccc2c(c1)ncn2C', 'pIC50', 6.84);

Sample Cc1cc(Nc2ncnc3cnc(O[C@H]4CCN(C)C[C@@H]4F)nc23)ccc1Oc1ccc2c(c1)ncn2C ; pIC50 observed: 7.03

The reported pIC50 of the molecule Cc1cc(Nc2ncnc3cnc(N4CCC5(COC5)C4)nc23)ccc1Oc1ccc2c(c1)ncn2C was 7.01

So for Cc1cc(Nc2ncnc3cnc(N4CCC[C@@H]4C(F)(F)F)nc23)ccc1Oc1ccc2c(c1)ncn2C , the logged pIC50 turned out to be 6.78

Sample Cn1cnc2cc(Oc3ccc(Nc4ncnc5cnc(N6CCOC(C)(C)C6)nc45)cc3Cl)ccc21 ; pIC50 observed: 7.39

The molecule listed as Cc1cc(Nc2ncnc3cnc(N4CC[C@@H]4C(C)(C)O)nc23)ccc1Oc1ccc2c(c1)ncn2C has a reported pIC50 of 6.94

----------
# measured-target: ErbB2 WT (Homo sapiens (Human))
# Sequence (P04626 23-1255): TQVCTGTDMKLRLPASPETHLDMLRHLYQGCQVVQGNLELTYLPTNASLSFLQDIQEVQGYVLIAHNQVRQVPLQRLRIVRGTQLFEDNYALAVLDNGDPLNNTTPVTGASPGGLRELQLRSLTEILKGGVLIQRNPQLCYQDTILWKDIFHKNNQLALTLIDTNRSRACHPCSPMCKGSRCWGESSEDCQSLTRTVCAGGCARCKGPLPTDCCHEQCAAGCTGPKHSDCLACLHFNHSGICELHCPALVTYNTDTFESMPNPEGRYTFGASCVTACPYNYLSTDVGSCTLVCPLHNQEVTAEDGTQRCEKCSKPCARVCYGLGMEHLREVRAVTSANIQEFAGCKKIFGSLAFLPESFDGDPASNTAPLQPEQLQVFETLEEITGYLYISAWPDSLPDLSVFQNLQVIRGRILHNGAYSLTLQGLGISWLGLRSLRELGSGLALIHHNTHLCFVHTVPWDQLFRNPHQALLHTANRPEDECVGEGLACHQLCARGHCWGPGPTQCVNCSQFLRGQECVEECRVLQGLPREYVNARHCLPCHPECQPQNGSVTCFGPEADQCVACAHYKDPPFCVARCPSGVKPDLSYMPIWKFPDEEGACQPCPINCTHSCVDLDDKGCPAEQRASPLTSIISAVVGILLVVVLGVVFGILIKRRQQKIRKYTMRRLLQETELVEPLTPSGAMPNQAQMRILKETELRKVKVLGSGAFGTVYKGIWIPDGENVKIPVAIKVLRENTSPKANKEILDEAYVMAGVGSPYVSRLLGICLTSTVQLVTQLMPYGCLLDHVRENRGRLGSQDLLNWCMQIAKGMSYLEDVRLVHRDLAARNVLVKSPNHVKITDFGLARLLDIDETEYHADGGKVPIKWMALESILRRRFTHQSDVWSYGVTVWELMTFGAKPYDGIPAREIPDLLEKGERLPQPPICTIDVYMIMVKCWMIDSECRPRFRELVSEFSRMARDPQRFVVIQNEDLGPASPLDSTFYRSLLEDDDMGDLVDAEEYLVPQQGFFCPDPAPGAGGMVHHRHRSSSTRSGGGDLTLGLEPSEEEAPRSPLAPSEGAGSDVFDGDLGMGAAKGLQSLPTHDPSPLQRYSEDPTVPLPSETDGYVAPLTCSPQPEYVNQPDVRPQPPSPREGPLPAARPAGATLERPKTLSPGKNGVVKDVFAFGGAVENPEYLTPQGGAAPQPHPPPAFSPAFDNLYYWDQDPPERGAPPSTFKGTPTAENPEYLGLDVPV
endpoint: pIC50
pIC50 (log units): -log10 of the concentration in mol/L.

// solved cases for pIC50 follow
INSERT INTO results (compound, measured_target, value) VALUES
  ('Cc1cc(Nc2ncnc3cnc(N4CCC(F)(F)[C@@H](O)C4)nc23)ccc1Oc1ccc2c(c1)ncn2C', 'ErbB2 WT (Homo sapiens (Human))', 7.05),
  ('Cc1cc(Nc2ncnc3cnc(N4CCOC5(CC5)C4)nc23)ccc1Oc1ccc2c(c1)ncn2C', 'ErbB2 WT (Homo sapiens (Human))', 6.91);

pIC50 for ErbB2 WT (Homo sapiens (Human)) with input COC[C@H]1CCN1c1ncc2ncnc(Nc3ccc(Oc4ccn5ncnc5c4)c(Cl)c3)c2n1 equals 7.18

Reported pIC50 (ErbB2 WT (Homo sapiens (Human))) for entry Cn1cnc2cc(Oc3ccc(Nc4ncnc5cnc(N6CCN7CCOC[C@@H]7C6)nc45)cc3Cl)ccc21.O=C(O)C(F)(F)F.O=C(O)C(F)(F)F [Example 151, bis(2,2,2-trifluoroacetate)] is 7.21

Measured on ErbB2 WT (Homo sapiens (Human)), Cc1cc(Nc2ncnc3cnc(N4C[C@@H]5COC[C@@H]54)nc23)ccc1Oc1ccc2c(c1)ncn2C has a documented pIC50 of 7.16

Reported pIC50 (ErbB2 WT (Homo sapiens (Human))) for entry Cc1cc(Nc2ncnc3cnc(NC(C)C)nc23)ccc1Oc1ccc2c(c1)ncn2C is 7.06

pIC50 of Cc1cc(Nc2ncnc3cnc(N4C[C@H]5C[C@@H]4CO5)nc23)ccc1Oc1ccn2ncnc2c1 , assay on ErbB2 WT (Homo sapiens (Human)), is 6.92
